target: OX2R (Homo sapiens); construct: expressed in transfected cells; host or cells: CHO (Chinese hamster ovary) cells constitutively expressing the OX2R gene and NFAT-luciferase (CHOOX2R); experiment: Evaluation of agonist activity against OX2R (CHOOX2R cells, Fura2AM fluorescence, FDSS3000); format: cell-based; conditions: test compound 0.1 μM; relative to orexin-A as full agonist (100%); CHOOX2R cells
Sequence (O43614 whole entry): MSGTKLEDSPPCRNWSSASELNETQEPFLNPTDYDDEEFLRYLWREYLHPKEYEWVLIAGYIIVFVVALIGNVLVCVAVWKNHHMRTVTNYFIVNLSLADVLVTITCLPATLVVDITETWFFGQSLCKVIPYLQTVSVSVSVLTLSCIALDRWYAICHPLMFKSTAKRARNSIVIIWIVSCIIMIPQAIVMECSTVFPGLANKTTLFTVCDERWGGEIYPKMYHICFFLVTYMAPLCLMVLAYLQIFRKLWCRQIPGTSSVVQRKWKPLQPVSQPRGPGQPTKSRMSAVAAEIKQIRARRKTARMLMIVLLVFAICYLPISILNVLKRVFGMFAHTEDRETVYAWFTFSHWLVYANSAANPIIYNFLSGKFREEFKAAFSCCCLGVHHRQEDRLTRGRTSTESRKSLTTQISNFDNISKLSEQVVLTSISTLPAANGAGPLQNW
property_label: Response (0.1 μM (%))

Completed entries (count: 2):
COc1cc(C)c(-c2cccc(C(=O)N(C)C)c2)cc1S(=O)(=O)Nc1cccc(NCCNC(=O)c2cccnc2OC)c1 :: 77
COc1ccccc1C(=O)NCCNc1cccc(NS(=O)(=O)c2cc(-c3cccc(C(=O)N(C)C)c3)ccc2F)c1 :: 65

(1) COc1cc(C)c(-c2cccc(C(=O)N(C)C)c2)cc1S(=O)(=O)Nc1cccc(NCCNC(=O)c2ccccc2Cl)c1
(2) COc1cccc(C(=O)NCCNc2cccc(NS(=O)(=O)c3cc(-c4cccc(OC)c4)ccc3OC)c2)c1
(3) CCOc1ccc(-c2cccc(C(=O)N(C)C)c2)cc1S(=O)(=O)Nc1cccc(NCCNC(=O)c2ccccc2OC)c1
(4) COc1ccccc1C(=O)NCCNc1cccc(NS(=O)(=O)c2cc(-c3cccc(F)c3)ccc2OC)c1
[Q] Sort entries by Response (0.1 μM (%)) from minimum to maximum value. A complete answer lists every label in the requested sequence.
[A] 2, 4, 3, 1
